For each entry below, report its relative viability value.
# System: NCI-H1975
# assay.overview: relative viability (nuclei count vs DMSO), 5 days (fraction); higher = more cells survive
# applied.conditions: first compound 158.11 µM
One number for each entry.

Record excerpt, results attached:
{"columns": ["compound", "relative viability"],
 "data": [
  ["O=C(O)CCCCC(CCSCc1ccccc1)SCc1ccccc1 (centres undefined) [CPI-613] + CC(=O)Nc1cccc(-n2c(=O)n(C3CC3)c(=O)c3c(Nc4ccc(I)cc4F)n(C)c(=O)c(C)c32)c1 [Trametinib] (partner 0.02 µM)", 0.348],
  ["O=C(O)CCCCC(CCSCc1ccccc1)SCc1ccccc1 (centres undefined) [CPI-613] + CC(C)C[C@H](NC(=O)[C@H](Cc1ccccc1)NC(=O)c1cnccn1)B(O)O [Bortezomib] (partner 0.002 µM)", 0.174],
  ["O=C(O)CCCCC(CCSCc1ccccc1)SCc1ccccc1 (centres undefined) [CPI-613] + NC(=O)Nc1cc(-c2cccc(F)c2)sc1C(=O)N[C@H]1CCCNC1 [AZD7762] (partner 0.2 µM)", 0.666]
]}

Q: Fill in: relative viability of O=C(O)CCCCC(CCSCc1ccccc1)SCc1ccccc1 (centres undefined) [CPI-613] + CC1(C)CCC(c2ccc(Cl)cc2)=C(CN2CCN(c3ccc(C(=O)NS(=O)(=O)c4ccc(N[C@H](CCN5CCOCC5)CSc5ccccc5)c(S(=O)(=O)C(F)(F)F)c4)cc3)CC2)C1 [Navitoclax] (partner 0.5 µM) is ___
Ans: 0.816

----------
# System: LXF-289
# assay.overview: relative viability (nuclei count vs DMSO), 5 days (fraction); higher = more cells survive
# applied.conditions: first compound 0.8 µM
quantity.kind: relative viability

Record excerpt, results attached:
{"columns": ["compound", "reading"],
 "data": [
  ["Cc1cnc(-c2cnc(NCCNc3ccc(C#N)cn3)nc2-c2ccc(Cl)cc2Cl)[nH]1 + NC(=O)Nc1cc(-c2cccc(F)c2)sc1C(=O)N[C@H]1CCCNC1 [AZD7762] (partner 0.2 µM)", 1.18],
  ["O=c1[nH]c2ccccc2n1C1CCN(CCCC(c2ccc(F)cc2)c2ccc(F)cc2)CC1 [Pimozide] + Cc1cc(Nc2cc(N3CCN(C)CC3)nc(Sc3ccc(NC(=O)C4CC4)cc3)n2)n[nH]1 [Tozasertib] (partner 0.1 µM)", 0.173]
]}

// next item, relative viability requested
Q: Fill in: relative viability of Cc1cnc(-c2cnc(NCCNc3ccc(C#N)cn3)nc2-c2ccc(Cl)cc2Cl)[nH]1 + Cc1nc(NC(=O)N2CCC[C@H]2C(N)=O)sc1-c1ccnc(C(C)(C)C(F)(F)F)c1 [Alpelisib] (partner 2 µM) is ___
Ans: 1.05

----------
# System: NCI-H1915
# assay.overview: relative viability (nuclei count vs DMSO), 5 days (fraction); higher = more cells survive
# applied.conditions: first compound 0.8 µM
For each entry below, report its relative viability value.
Give bare numbers.

Record excerpt, results attached:
{"columns": ["molecule", "measured.on", "quantity.kind", "reading"],
 "data": [
  ["O=c1[nH]c2ccccc2n1C1CCN(CCCC(c2ccc(F)cc2)c2ccc(F)cc2)CC1 [Pimozide] + CS(=O)(=O)N1CCN(Cc2cc3nc(-c4cccc5[nH]ncc45)nc(N4CCOCC4)c3s2)CC1 [Pictilisib] (partner 1 µM)", "NCI-H1915", "relative viability", 0.524],
  ["Cc1cnc(-c2cnc(NCCNc3ccc(C#N)cn3)nc2-c2ccc(Cl)cc2Cl)[nH]1 + CC(C)C[C@H](NC(=O)[C@H](Cc1ccccc1)NC(=O)c1cnccn1)B(O)O [Bortezomib] (partner 0.002 µM)", "NCI-H1915", "relative viability", 1.02],
  ["O=c1[nH]c2ccccc2n1C1CCN(CCCC(c2ccc(F)cc2)c2ccc(F)cc2)CC1 [Pimozide] + CCNC(=O)c1noc(-c2cc(C(C)C)c(O)cc2O)c1-c1ccc(CN2CCOCC2)cc1 [Luminespib] (partner 0.01 µM)", "NCI-H1915", "relative viability", 0.714]
]}

Batch: relative viability for all items listed.
1. O=c1[nH]c2ccccc2n1C1CCN(CCCC(c2ccc(F)cc2)c2ccc(F)cc2)CC1 [Pimozide] + Cc1nc(Nc2ncc(C(=O)Nc3c(C)cccc3Cl)s2)cc(N2CCN(CCO)CC2)n1 [Dasatinib] (partner 0.075 µM)
2. Cc1cnc(-c2cnc(NCCNc3ccc(C#N)cn3)nc2-c2ccc(Cl)cc2Cl)[nH]1 + Cc1nc(NC(=O)N2CCC[C@H]2C(N)=O)sc1-c1ccnc(C(C)(C)C(F)(F)F)c1 [Alpelisib] (partner 2 µM)
3. Cc1cnc(-c2cnc(NCCNc3ccc(C#N)cn3)nc2-c2ccc(Cl)cc2Cl)[nH]1 + COc1cccc2cc(-c3nc([C@H]4CC[C@H](C(=O)O)CC4)n4ncnc(N)c34)[nH]c12 [OSI-027] (partner 0.5 µM)
4. O=c1[nH]c2ccccc2n1C1CCN(CCCC(c2ccc(F)cc2)c2ccc(F)cc2)CC1 [Pimozide] + CC(C)C[C@H](NC(=O)[C@H](Cc1ccccc1)NC(=O)c1cnccn1)B(O)O [Bortezomib] (partner 0.002 µM)
5. Cc1cnc(-c2cnc(NCCNc3ccc(C#N)cn3)nc2-c2ccc(Cl)cc2Cl)[nH]1 + Cc1nc(Nc2ncc(C(=O)Nc3c(C)cccc3Cl)s2)cc(N2CCN(CCO)CC2)n1 [Dasatinib] (partner 0.075 µM)

Ans:
1. 0.214
2. 1.09
3. 0.658
4. 0.537
5. 0.342

Batch: relative viability for all items listed.
1. Cc1cnc(-c2cnc(NCCNc3ccc(C#N)cn3)nc2-c2ccc(Cl)cc2Cl)[nH]1 + COc1cc2c(Oc3ccc(NC(=O)C4(C(=O)Nc5ccc(F)cc5)CC4)cc3F)ccnc2cc1OCCCN1CCOCC1 [Foretinib] (partner 0.25 µM)
2. O=c1[nH]c2ccccc2n1C1CCN(CCCC(c2ccc(F)cc2)c2ccc(F)cc2)CC1 [Pimozide] + Cc1cc(Nc2cc(N3CCN(C)CC3)nc(Sc3ccc(NC(=O)C4CC4)cc3)n2)n[nH]1 [Tozasertib] (partner 0.1 µM)

Ans:
1. 1.1
2. 0.332
